- Test system: A549 NSCLC
- PROTOCOL_SUMMARY: NCI tumour cell line growth inhibition, 48 h
Entries and their TGI

| COMPOUND | SYSTEM | ATTRIBUTE_MEASURED | RESULT |
| --- | --- | --- | --- |
| Cc1c2c(nn1C)CSCc1cc(n(C)n1)CSc1cc(c3ccccc3c1)OCCCc1c(C(=O)O)n(C)c3c-2c(Cl)ccc13 | A549 NSCLC | TGI | 15.6 µM |
| O=c1cc(N2CCN(c3cc(=O)n4ccccc4n3)CC2)oc2ccccc12 | A549 NSCLC | TGI | > 87.8 µM |
| COc1cc([C@H]2OC[C@H]3[C@@H]2CO[C@@H]3c2cc(OC)c3c(c2)OCO3)cc(OC)c1OC | A549 NSCLC | TGI | > 100 µM |
| C#CCSC(C=C=C)P(=O)(OC(C)C)OC(C)C (stereo unspecified) | A549 NSCLC | TGI | > 100 µM |
| Nc1nc(Nc2ccc(C3CCC(N4CCOCC4)CC3)cc2)nn1-c1ccccn1 (stereo unspecified) | A549 NSCLC | TGI | > 100 µM |
| C[C@]12CC[C@H]3[C@@H](CC[C@]4(O)C[C@@H](O)CC[C@]34/C=N/O)[C@@]1(O)CC[C@@H]2C1=COC(=O)C1 | A549 NSCLC | TGI | 0.115 µM |

Request: Specify measured TGI for COc1ccc(C(=O)/C=C/c2c(Cl)c3c(c(OC)c2Cl)OCC(=O)N3)cc1 .
Response: > 100 µM

Request: Specify measured TGI for CCCCCCCCCCCCCCCCCCNc1ccn(C2OC(COP(=O)(O)OCC3OC(n4cc(F)c(NCCCCCCCCCCCCCCCCCC)nc4=O)CC3O)C(O)C2O)c(=O)n1 (stereo unspecified) .
Response: > 100 µM

Request: Specify measured TGI for COc1ccc(OC)c(NC(=O)CCC/C(CC(=O)c2ccc(O)c(OC)c2)=N\Nc2ccc([N+](=O)[O-])cc2)c1 .
Response: > 100 µM

Request: Specify measured TGI for CCOC(=O)c1cc2c3c(c(C(C)=O)c(O)c2[nH]1)N(CC(C)CC)CC3 (stereo unspecified) .
Response: > 100 µM

Request: Specify measured TGI for COC(=O)C(CSSC[C@H](N/C(C)=C/C(C)=O)C(=O)OC)N/C(C)=C/C(C)=O (stereo partly specified) .
Response: > 100 µM

Request: Specify measured TGI for Nc1ccccc1CC(O)C(=O)O (stereo unspecified) .
Response: > 100 µM

Request: Specify measured TGI for CC(=O)Nc1ccc(OC2=CCN(C)CC2)cc1 .
Response: > 100 µM

Request: Specify measured TGI for O=C(Nc1cccc(NC(=O)Nc2cc(C(F)(F)F)ccc2Cl)c1)Nc1cc(C(F)(F)F)ccc1Cl .
Response: 15.8 µM

Request: Specify measured TGI for C/C=C(/C)C(=O)O[C@H](C[C@@H](C)[C@H]1CC(c2ccoc2)OC1=O)[C@@]1(C)C(=O)CCC2O[C@]21C (stereo partly specified) .
Response: > 100 µM

Request: Specify measured TGI for Oc1c([Si](c2ccccc2)(c2ccccc2)c2ccccc2)cc2ccccc2c1-c1c(O)c([Si](c2ccccc2)(c2ccccc2)c2ccccc2)cc2ccccc12 .
Response: > 100 µM

Request: Specify measured TGI for CC1(C)[C@@H](OC(N)=O)[C@H]2O[C@H]2[C@]2(CO)[C@H]3CC[C@]4(C)[C@@H](c5ccc(=O)oc5)[C@@H](Cl)C[C@]4(O)C3=CC[C@@H]12 .
Response: 0.0088 µM

Request: Specify measured TGI for CCOC(=O)C(=Cc1cccnc1C)C(=O)OCC .
Response: 51.3 µM

Request: Specify measured TGI for N#Cc1ccccc1-c1nc2c3c(c(N)ccc3n1)C(=O)c1ccccc1-2 .
Response: > 100 µM

Request: Specify measured TGI for CCN(C(=S)N[C@H](C(=O)N[C@@H](C)C(=O)OC)C(C)C)c1ccccc1 .
Response: > 100 µM

Request: Specify measured TGI for CCCOC(=O)N1CCN(/[N+]([O-])=N/Oc2ccc([N+](=O)[O-])cc2[N+](=O)[O-])CC1 .
Response: 22.4 µM

Request: Specify measured TGI for O=C(NN1C(=O)CSC12CCCC2)c1[nH]c2ccc(Br)cc2c1-c1ccccc1 .
Response: > 100 µM

Request: Specify measured TGI for COc1ccc(C(=O)C(c2ccc(OC)cc2)C2(O)C(=O)Nc3c2ccc(Cl)c3C)cc1 (stereo unspecified) .
Response: > 100 µM

Request: Specify measured TGI for C/C=C(/COC(C)=O)C(=O)OC1C=C(C=O)C(C)(C)C=C1C (stereo unspecified) .
Response: > 100 µM

---

- System: PC-3 prostate
- PROTOCOL_SUMMARY: NCI tumour cell line growth inhibition, 48 h; in the data active = GI50 below about 0.43 µM; inactive = the rest
Write down one outcome, taken from active, inactive

A selection of reference data follows.
| COMPOUND | CATEGORY_LABEL |
| --- | --- |
| Cc1c2c(nn1C)CSCc1cc(n(C)n1)CSc1cc(c3ccccc3c1)OCCCc1c(C(=O)O)n(C)c3c-2c(Cl)ccc13 | inactive |
| CN(C)c1ccc2c(c1)OC(N)=C(C#N)C2c1ccc2c(c1)CCO2 (stereo not drawn) | active |
| CCc1ccc(NC(=O)COC(=O)c2cc([N+](=O)[O-])ccc2Sc2nnnn2C)cc1 | inactive |

Request: // outcome(item) with item = NC(=O)c1c(NC(=O)c2ccc3c(c2)OCO3)sc2c1CCC(=O)C2
Response: active

Request: // outcome(item) with item = CC[C@H](CO)Nc1nc(NCc2ccccc2)n2ncc(C(C)C)c2n1
Response: inactive

---

- Tested on: HS 578T breast
- PROTOCOL_SUMMARY: NCI tumour cell line growth inhibition, 48 h
ATTRIBUTE_MEASURED: TGI

Field: example entries. Status: answers known.
| COMPOUND | SYSTEM | TGI |
| --- | --- | --- |
| C/C=C(/C)C(=O)O[C@H](C[C@@H](C)[C@H]1CC(c2ccoc2)OC1=O)[C@@]1(C)C(=O)CCC2O[C@]21C (stereo partly drawn) | HS 578T breast | > 100 µM |
| O=C(OCCN=c1c2ccccc2ccc2ccccc12)c1ccc([N+](=O)[O-])cc1 | HS 578T breast | > 100 µM |
| CC1=NN(c2nc(N)nc(/C(C#N)=C/c3cccn3-c3cc(Cl)cc(Cl)c3)n2)C(C)(C)C1 | HS 578T breast | > 100 µM |
| NCCCN(CCCN)CCN(CCN(CCCN)CCCN)CCN(CCCN)CCCN | HS 578T breast | 58.5 µM |
| O=C(Nc1nc2ccccc2s1)c1cc([N+](=O)[O-])ccc1Cl | HS 578T breast | 15.7 µM |

Now for a further compound.
Request: Specify measured TGI for Clc1nc(Cl)c2ncn(C/C=C/COc3cccc(OC/C=C/Cn4cnc5c(Cl)nc(Cl)nc54)c3)c2n1 .
Response: > 100 µM

---

- Test system: MALME-3M melanoma
- PROTOCOL_SUMMARY: NCI tumour cell line growth inhibition, 48 h
Entries and their TGI

| COMPOUND | ATTRIBUTE_MEASURED | RESULT |
| --- | --- | --- |
| Cc1[nH]c2ccccc2c1C1Cc2ccccc2N1C(=O)/C=C/C(=O)O (stereo not given) | TGI | > 100 µM |
| COc1cc(C2c3cc4c(cc3OC(NNC(N)=O)C2C)OCO4)cc(OC)c1O (stereo not given) | TGI | > 100 µM |
| COc1ccc(C(=O)c2cc3c(N)c(C(=O)Nc4cccc5ccccc45)sc3nc2C)cc1 | TGI | > 50 µM |

Request: Specify measured TGI for CC1(O)CC(=O)c2c(cc3ccc(-c4c5c(c(O)c6c(O)cccc46)C(=O)CC(C)(O)C5)c(O)c3c2O)C1 (stereo not given) .
Response: 1.61 µM

Request: Specify measured TGI for Cc1ccc(S(=O)(=O)Nc2cccc3[nH]c(C(F)(F)F)nc23)cc1 .
Response: 37.3 µM

Request: Specify measured TGI for CN(C)c1ccc2c(c1)OC(N)=C(C#N)C2c1ccc2c(c1)CCO2 (stereo not given) .
Response: 59.7 µM

Request: Specify measured TGI for Cc1c2c(nn1C)CSCc1cc(n(C)n1)CSc1cc(c3ccccc3c1)OCCCc1c(C(=O)O)n(C)c3c-2c(Cl)ccc13 .
Response: 9.87 µM

---

- Test system: RPMI-8226 leukemia
- PROTOCOL_SUMMARY: NCI tumour cell line growth inhibition, 48 h
Entries and their TGI

Field: example entries. Status: answers known.
| MOLECULE | TGI |
| --- | --- |
| COc1ccc2c(c1)C(=O)c1c-2c(N(C)C)nc2ccccc12 | > 100 µM |
| O=CN/C=C/c1ccc(O)c(O)c1 | > 100 µM |
| CC[N+]1(C)CCC(O)(c2ccc(Cl)c(Cl)c2)C(C(=O)c2ccc(Cl)c(Cl)c2)C1 (stereo not drawn) | > 10 µM |
| O=c1[nH]nc(-c2ccccc2)n1/N=C/c1cccnc1 | > 100 µM |
| Cc1cn(Cc2cnnn2CC2OC(n3cc(C)c(=O)[nH]c3=O)CC2O)c(=O)[nH]c1=O (stereo not drawn) | > 100 µM |
| CN(C)c1nc2oc(-c3ccccc3)c(-c3ccccc3)c2c2nnnn12 | > 100 µM |
| CC(=O)c1c(C(F)(F)F)n([O-])c2cc(Cl)c(Cl)cc2[n+]1=O | 0.353 µM |
| O=c1ccn(CC2(CO)CC(Cc3ccccc3)C2)c(=O)[nH]1 (stereo not drawn) | > 100 µM |

Request: Specify measured TGI for O=C1c2ccccc2-c2c1c1ccccc1c(=O)n2CCN1CCOCC1 .
Response: > 100 µM
